# experimentalProtocol: Lipophilicity: partition coefficient (octanol-buffer) and capacity factor by RP-HPLC
# Type: physicochemical
# reportedConditions: rp-hplc
measuredMetric: Capacity factor (22°C) k'
I'd appreciate a reply containing only the number, no unit.

Reference set (2 entries):
CC[C@H](C(=O)OCc1ccc(COC(=O)[C@@H](CC)[C@H](COC(C)=O)Cc2cncn2C)cc1)[C@H](COC(C)=O)Cc1cncn1C [Example 9] : 1.3987
CC[C@H](C(=O)OCc1ccccc1)[C@H](COC(=O)CCCCC(=O)OC[C@H](Cc1cncn1C)[C@H](CC)C(=O)OCc1ccccc1)Cc1cncn1C [Example 15, O,O'-Adipoyl (dibenzyl) bispilocarpate] : 4.4810

API: the following record is the query input.
Dear colleague, please send me the reported Capacity factor (22°C) k' for CC[C@H](C(=O)OCc1ccccc1)[C@H](COC(=O)/C=C/C(=O)OC[C@H](Cc1cncn1C)[C@H](CC)C(=O)OCc1ccccc1)Cc1cncn1C [Example 18, O,O'-Fumaroyl (dibenzyl) bispilocarpate] when you can.
4.2785
